# system under test: TLR1/TLR2 (Mus musculus, UniProt Q9EPQ1+Q9QUN7)
# Sequence (Q9EPQ1 26-795): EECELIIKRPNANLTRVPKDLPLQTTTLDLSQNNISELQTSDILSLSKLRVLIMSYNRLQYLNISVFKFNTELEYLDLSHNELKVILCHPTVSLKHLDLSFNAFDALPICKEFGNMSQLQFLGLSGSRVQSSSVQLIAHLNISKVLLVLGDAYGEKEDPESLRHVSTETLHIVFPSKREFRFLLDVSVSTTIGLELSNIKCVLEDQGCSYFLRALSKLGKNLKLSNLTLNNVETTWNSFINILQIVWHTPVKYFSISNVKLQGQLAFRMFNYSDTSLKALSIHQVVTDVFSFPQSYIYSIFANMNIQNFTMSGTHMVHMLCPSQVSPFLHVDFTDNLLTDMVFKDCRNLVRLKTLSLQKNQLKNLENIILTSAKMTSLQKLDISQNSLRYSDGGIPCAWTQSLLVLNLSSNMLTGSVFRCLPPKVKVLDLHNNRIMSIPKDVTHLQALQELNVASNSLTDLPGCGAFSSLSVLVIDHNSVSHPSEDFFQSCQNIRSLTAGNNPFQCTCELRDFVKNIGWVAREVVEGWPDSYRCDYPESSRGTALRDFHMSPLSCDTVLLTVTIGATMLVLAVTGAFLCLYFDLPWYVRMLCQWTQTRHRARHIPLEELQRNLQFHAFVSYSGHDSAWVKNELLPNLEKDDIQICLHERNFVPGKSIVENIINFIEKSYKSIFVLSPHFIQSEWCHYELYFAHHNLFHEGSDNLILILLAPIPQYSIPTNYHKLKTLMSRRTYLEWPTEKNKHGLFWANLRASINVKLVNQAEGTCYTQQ
# Sequence (Q9QUN7 25-784): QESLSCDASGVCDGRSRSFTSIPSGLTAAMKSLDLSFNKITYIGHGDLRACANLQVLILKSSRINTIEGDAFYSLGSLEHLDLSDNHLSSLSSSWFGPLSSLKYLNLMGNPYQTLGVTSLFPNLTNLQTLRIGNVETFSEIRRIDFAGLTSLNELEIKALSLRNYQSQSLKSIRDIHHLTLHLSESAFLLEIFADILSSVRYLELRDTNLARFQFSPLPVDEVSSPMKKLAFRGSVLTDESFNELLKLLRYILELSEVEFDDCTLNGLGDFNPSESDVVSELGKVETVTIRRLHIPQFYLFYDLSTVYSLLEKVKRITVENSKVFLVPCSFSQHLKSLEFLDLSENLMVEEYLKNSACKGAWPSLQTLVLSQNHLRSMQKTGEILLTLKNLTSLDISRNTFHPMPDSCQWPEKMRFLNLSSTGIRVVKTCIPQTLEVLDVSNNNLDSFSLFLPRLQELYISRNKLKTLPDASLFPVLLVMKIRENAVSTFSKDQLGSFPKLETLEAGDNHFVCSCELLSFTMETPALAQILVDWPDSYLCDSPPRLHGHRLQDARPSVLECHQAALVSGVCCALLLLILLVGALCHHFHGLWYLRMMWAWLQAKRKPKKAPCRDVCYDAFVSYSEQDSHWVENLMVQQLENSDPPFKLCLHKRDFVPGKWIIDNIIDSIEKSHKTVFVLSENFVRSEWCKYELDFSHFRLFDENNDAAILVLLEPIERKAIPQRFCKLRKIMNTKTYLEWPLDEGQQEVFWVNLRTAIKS
# assay remarks: TNF-α release from thioglycolate-elicited mouse peritoneal macrophages (ELISA)
# condition info: read-out: EC50 (nM) (mouse): EC50 TNF-α release from mouse macrophages; Table 1
Consider the following molecules; for each one, report its EC50.
Answers are plain numbers, in nM.

For every listed record, write down its EC50.
1. [N-]=[N+]=NCCCCCCCCCCCCNC(=O)[C@@H]1CN(C(=O)c2ccc(C(=O)N3C[C@@H](C(=O)N[C@H]4C[C@@H]4c4ccccc4)[C@H](C(=O)N[C@H]4C[C@@H]4c4ccccc4)C3)cc2)C[C@H]1C(=O)N[C@H]1C[C@@H]1c1ccccc1 [Compound 20]
2. C#CCCCCCCCCCCCCNC(=O)[C@@H]1CN(C(=O)c2ccc(C(=O)N3C[C@@H](C(=O)N[C@H]4C[C@@H]4c4ccccc4)[C@H](C(=O)N[C@H]4C[C@@H]4c4ccccc4)C3)cc2)C[C@H]1C(=O)N[C@H]1C[C@@H]1c1ccccc1 [Compound 19]
3. CC(C)(C)OC(=O)NCCCCCCCCCCCCNC(=O)[C@@H]1CN(C(=O)c2ccc(C(=O)N3C[C@@H](C(=O)N[C@H]4C[C@@H]4c4ccccc4)[C@H](C(=O)N[C@H]4C[C@@H]4c4ccccc4)C3)cc2)C[C@H]1C(=O)N[C@H]1C[C@@H]1c1ccccc1 [Compound 17]
4. O=C(NCCc1ccc(F)cc1)[C@@H]1CN(C(=O)c2ccc(C(=O)N3C[C@@H](C(=O)N[C@H]4C[C@@H]4c4ccccc4)[C@H](C(=O)N[C@H]4C[C@@H]4c4ccccc4)C3)cc2)C[C@H]1C(=O)N[C@H]1C[C@@H]1c1ccccc1 [Compound 25]
5. O=C(O)CNC(=O)CCCCCCCCCCCNC(=O)[C@@H]1CN(C(=O)c2ccc(C(=O)N3C[C@@H](C(=O)N[C@H]4C[C@@H]4c4ccccc4)[C@H](C(=O)N[C@H]4C[C@@H]4c4ccccc4)C3)cc2)C[C@H]1C(=O)N[C@H]1C[C@@H]1c1ccccc1 [Compound 15]
6. CC(C)(C)OC(=O)NCC(=O)NCCCCCCCCCCCCNC(=O)[C@@H]1CN(C(=O)c2ccc(C(=O)N3C[C@@H](C(=O)N[C@H]4C[C@@H]4c4ccccc4)[C@H](C(=O)N[C@H]4C[C@@H]4c4ccccc4)C3)cc2)C[C@H]1C(=O)N[C@H]1C[C@@H]1c1ccccc1 [Compound 18]
7. NC(=O)CCCCCCCCCCCNC(=O)[C@@H]1CN(C(=O)c2ccc(C(=O)N3C[C@@H](C(=O)N[C@H]4C[C@@H]4c4ccccc4)[C@H](C(=O)N[C@H]4C[C@@H]4c4ccccc4)C3)cc2)C[C@H]1C(=O)N[C@H]1C[C@@H]1c1ccccc1 [Compound 12]

1. 0.6
2. 1.3
3. 2.8
4. 1
5. 1200
6. 170
7. 60

Quote TLR1/TLR2 (Mus musculus, UniProt Q9EPQ1+Q9QUN7) EC50 for entry O=C(NCCc1ccccc1)[C@@H]1CN(C(=O)c2ccc(C(=O)N3C[C@@H](C(=O)N[C@H]4C[C@@H]4c4ccccc4)[C@H](C(=O)N[C@H]4C[C@@H]4c4ccccc4)C3)cc2)C[C@H]1C(=O)N[C@H]1C[C@@H]1c1ccccc1 [Compound 23] .
30

Entry source: patent US20250367166A1
